B1: C2CD2L (parent)
chain: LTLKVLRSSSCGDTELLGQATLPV

# Variants of: B1
# EXPERIMENTAL DETAILS: protein stability index of a GFP-peptide fusion (GPS, HEK-293T) (PSI 1-6); higher = more stable;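 further: lentivirally expressed fusions sorted by FACS into six bins by GFP to DsRed ratio, PSI derived from sequencing read proportions per bin multiplied by bin number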
# EXPERIMENTAL CONTEXT: c terminus: a fixed tail appended
EXPERIMENTAL READOUT: protein stability index
# answer = number (no unit)

protein stability index for G12I is 2.27

protein stability index for L3M is 1.46

protein stability index for L1P is 2.9

protein stability index for V5D is 2.97

protein stability index for L22C is 2.52

protein stability index for G12V is 1.99

protein stability index for G12D is 2.05

protein stability index for G18F is 2.89

protein stability index for A20E is 2.1

protein stability index for T21G is 2.94

protein stability index for L6N is 2.19
